Read-out record for M. kansasii (ATCC 12478): MIC
The answer is to be given in µg/mL; state only the numeric part.

# SMILES NOTATION, UNIT, MIC
data = [
    ("CO[C@H]1/C=C/O[C@@]2(C)Oc3c(C)c(O)c4c(c3C2=O)C2=NC3(CCN(CC(C)C)CC3)NC2=C(NC(=O)/C(C)=C\\C=C\\[C@H](C)[C@H](O)[C@@H](C)[C@@H](O)[C@@H](C)[C@H](OC(=O)CN2CCC3(CC2)C(=O)NCN3c2ccccc2)[C@@H]1C)C4=O", "µg/mL", 0.01),
]

Now, please, on to the next molecule.
# lookup: `CO[C@H]1/C=C/O[C@@]2(C)Oc3c(C)c(O)c4c(c3C2=O)C2=NC3(CCN(CC(C)C)CC3)NC2=C(NC(=O)/C(C)=C\C=C\[C@H](C)[C@H](O)[C@@H](C)[C@@H](O)[C@@H](C)[C@H](OC(=O)CN2CCN(C)CC2)[C@@H]1C)C4=O` on M. kansasii (ATCC 12478), MIC = 0.01
